tested on: Candida albicans; test: Antifungal activity against Candida albicans at 64 uM measured after 17 hrs by resazurin based flourimetric assay; assay type: functional, organism-based
Active and inactive are the calls of the source. No cut-off for these calls is given here.
Readout label: Activity

CC(C)C[C@H](N)C(=O)NS(=O)(=O)OC[C@H]1OC[C@@H](CCCn2cc(-c3cccnc3)nn2)[C@H](O)[C@@H]1O
inactive
CC(C)C[C@H](N)C(=O)NS(=O)(=O)OC[C@H]1OC[C@@H](CCCn2cc(-c3ccc(OC(F)(F)F)cc3)nn2)[C@H](O)[C@@H]1O
inactive
CCCCCCCCc1cn(CCC[C@@H]2CO[C@H](COS(=O)(=O)NC(=O)[C@@H](N)CC(C)C)[C@@H](O)[C@H]2O)nn1
inactive
